methodDescription: E. coli DRC41 culture turbidity changes, primary screen, E. coli filamentation inducer project, strain DRC41, OD650, 48 h (AID 1152);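 also: E. coli MC1000 strain DRC41 lacking acrAB efflux pump and sulA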
conditionSummary: E. coli DRC41 (acrAB sulA), higher = more signal, called active from +8 up or from −8 down
The source made the active and inactive calls.
endpointLabel: z-score

response.value for `CC(C)C[C@@H]1NC(=O)[C@H]2C[C@@H](C(=O)NCCCCCCNC(=O)CS)[C@@H](c3cccc(OCCO)c3)N2C1=O` (field: z-score) = 1.03 (inactive)

response.value for `C=CC[C@]1(C(=O)N2CCOCC2)N=C(c2ccc(OCCCO)cc2)O[C@H]1c1ccccc1` (field: z-score) = 0.104 (inactive)

response.value for `C=C[C@H](C)[C@@H](O)c1ccc(O)c2ccccc12` (field: z-score) = 0.048 (inactive)

response.value for COc1ccc(C(O)C2C=CC3C(=O)N(c4ccccc4)C(=O)C3N2Nc2ccc([N+](=O)[O-])cc2)cc1OCc1ccccc1 (centres undefined) (field: z-score) = -1.64 (inactive)

response.value for `COCC(=C=CC[C@@H](O)c1ccc(CO)o1)CCO` (field: z-score) = 2.61 (inactive)

response.value for `[N-]=[N+]=NCc1ccccc1[C@@H]1OC(c2ccc(OCCCO)cc2)=N[C@]1(Cc1ccccc1)C(=O)N1CCCCC1` (field: z-score) = 1.22 (inactive)

response.value for `COC(=O)[C@@]1(Cc2ccc(OC)cc2)[C@H]2c3cc(C(=O)N4CCCC4)n(CCc4c[nH]c5cc(F)ccc45)c3C[C@H]2CN1C(=O)c1ccccc1` (field: z-score) = -0.429 (inactive)

response.value for CCCCC(CC)C(O)C1C=CC2C(=O)N(c3ccccc3)C(=O)C2N1Nc1ccccc1 (centres undefined) (field: z-score) = -1.61 (inactive)

response.value for `COCCOC(=O)N1C(=O)[C@@]2(c3cc(C#CC4=CCCCC4)ccc31)[C@H](C(=O)N1CCc3cc(OC)c(OC)cc3C1)[C@H]1C(=O)O[C@H](c3ccccc3)[C@H](c3ccccc3)N1[C@@H]2c1ccccc1OCCO` (field: z-score) = 0.585 (inactive)

response.value for `C=CC[C@@]1(C(=O)N2CCOCC2)N=C(c2ccc(OCCCO)cc2)O[C@@H]1c1ccccc1N=[N+]=[N-]` (field: z-score) = 0.483 (inactive)

response.value for `COCCOC(=O)N1C(=O)[C@@]2(c3cc(C#CCNC(N)=O)ccc31)[C@H](c1ccc(O)cc1)N1[C@H](c3ccccc3)[C@H](c3ccccc3)OC(=O)[C@H]1[C@@H]2C(=O)NC[C@H](O)c1ccccc1` (field: z-score) = -0.388 (inactive)

response.value for C=CC[C@@]1(C(=O)NCC(O)CO)N=C(c2ccc(OCCCO)cc2)O[C@@H]1c1ccccc1N=[N+]=[N-] (some centres undefined) (field: z-score) = 1 (inactive)

response.value for `CO[C@H]1O[C@H](CO)[C@@H](OC(=O)Nc2ccc(Oc3ccccc3)cc2)[C@H](OC(=O)Nc2ccccc2)[C@H]1OC(=O)Nc1ccccc1` (field: z-score) = 0.415 (inactive)

response.value for COC(=O)c1ccc(OC)c(/C=C\CC(OC(C)=O)c2ccccc2)c1 (centres undefined) (field: z-score) = 0.0491 (inactive)
